Target: RAC-alpha serine/threonine-protein kinase (Homo sapiens, UniProt P31749)
Sequence (P31749 whole entry): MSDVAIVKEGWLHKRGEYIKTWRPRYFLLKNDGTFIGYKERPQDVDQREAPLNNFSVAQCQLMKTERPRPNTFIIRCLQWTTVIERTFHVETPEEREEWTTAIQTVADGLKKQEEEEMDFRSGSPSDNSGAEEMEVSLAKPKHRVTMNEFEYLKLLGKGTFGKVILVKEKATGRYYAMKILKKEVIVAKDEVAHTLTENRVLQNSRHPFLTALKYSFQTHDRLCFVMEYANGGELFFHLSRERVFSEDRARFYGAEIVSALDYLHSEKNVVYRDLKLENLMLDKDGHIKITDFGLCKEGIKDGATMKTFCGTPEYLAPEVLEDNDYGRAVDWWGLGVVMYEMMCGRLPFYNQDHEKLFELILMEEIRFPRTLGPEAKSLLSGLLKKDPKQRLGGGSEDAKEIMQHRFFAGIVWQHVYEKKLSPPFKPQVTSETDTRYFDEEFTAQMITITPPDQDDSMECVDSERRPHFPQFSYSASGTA
Experiment: Inhibition of Akt1
readout-label: IC50 (nM)

Example molecules with recorded IC50:
[[record]]
molecule = "CCOCCN(C[C@@H](O)CN1CCCC2(CCN(c3ncnc(N)c3C3CC3)C2)C1)S(=O)(=O)c1c(C)cccc1C (mixture of isomers)"
result_value = 12

[[record]]
molecule = "Cc1ccccc1S(=O)(=O)NC[C@@H](O)CN1CCC[C@@]2(CCN(c3ncnc(N)c3C3CC3)C2)C1"
result_value = 9

[[record]]
molecule = "Nc1ncnc(N2CC[C@@]3(CCCN(C[C@H](O)CNS(=O)(=O)c4ccccc4Br)C3)C2)c1C1CC1"
result_value = 17

[[record]]
molecule = "Nc1ncnc(N2CC[C@@]3(CCCN(C[C@H](O)CNS(=O)(=O)c4ccccc4F)C3)C2)c1C1CC1"
result_value = 81

[[record]]
molecule = "CCOCCN(C[C@@H](O)CN1CCCC2(CCN(c3ncnc4[nH]cc(C)c34)CC2)C1)S(=O)(=O)c1c(C)cccc1C"
result_value = 41

[[record]]
molecule = "Cc1cc(F)ccc1S(=O)(=O)NC[C@@H](O)CN1CCC[C@@]2(CCN(c3ncnc(N)c3C3CC3)C2)C1"
result_value = 8


(A) Cc1ccncc1S(=O)(=O)NC[C@@H](O)CN1CCC[C@@]2(CCN(c3ncnc(N)c3C3CC3)C2)C1
(B) Cc1noc(C)c1S(=O)(=O)NC[C@@H](O)CN1CCC[C@@]2(CCN(c3ncnc(N)c3C3CC3)C2)C1
Ask: Please indicate which has the smaller reported IC50: A , or B . Reply briefly: the label of your chosen item.
Result: B

###

Target: RAC-alpha serine/threonine-protein kinase (Homo sapiens, UniProt P31749)
Assay: Inhibition of AKT1-mediated PRAS40 phosphorylation in human LNCaP cells
Type: cell-based
readout-label: IC50 (nM)

Example compounds with recorded IC50:
[[record]]
compound = "CCOCCN(C[C@@H](O)CN1CCCC2(CCN(c3ncncc3C3CC3)C2)C1)S(=O)(=O)c1c(C)cccc1C (some centres undefined)"
readout_label = "IC50"
result_value = 740

[[record]]
compound = "Cc1cccc(C)c1S(=O)(=O)NC[C@@H](O)CN1CCC[C@@]2(CCN(c3ncnc(N)c3C3CC3)C2)C1"
readout_label = "IC50"
result_value = 900


(I) CCOCCN(C[C@@H](O)CN1CCCC2(CCN(c3ncnc4ccccc34)C2)C1)S(=O)(=O)c1c(C)cccc1C (some centres undefined)
(II) CCOCCN(C[C@@H](O)CN1CCCC2(CCN(c3ncnc4[nH]cc(C)c34)C2)C1)S(=O)(=O)c1c(C)cccc1C (some centres undefined)
Ask: Lab note: check whether I or II shows the higher recorded IC50. Reply briefly: the label of your chosen item.
Result: I
(I: 2400 nM, II: 180 nM)

###

Biological target: RAC-alpha serine/threonine-protein kinase (Homo sapiens, UniProt P31749)
Test: Inhibition of Akt1
pIC50: −log10 of the molar value.
readout-label: pIC50

[[record]]
compound = "Cc1cccc(C)c1S(=O)(=O)NC[C@@H](O)CN1CCC[C@@]2(CCN(c3ncnc(N)c3C3CC3)C2)C1"
readout_label = "pIC50"
result_value = 8.40

[[record]]
compound = "Cc1ccc(S(=O)(=O)NC[C@@H](O)CN2CCC[C@@]3(CCN(c4ncnc(N)c4C4CC4)C3)C2)c(C)c1"
readout_label = "pIC50"
result_value = 6.80

[[record]]
compound = "CCOCCN(C[C@@H](O)CN1CCCC2(CCN(c3ncncc3C3CC3)C2)C1)S(=O)(=O)c1c(C)cccc1C (stereo not given in full)"
readout_label = "pIC50"
result_value = 7.92


(A) Cc1cccc(C)c1S(=O)(=O)N1CCC[C@H]1[C@H](O)CN1CCC[C@@]2(CCN(c3ncnc(N)c3C3CC3)C2)C1
(B) Cc1cccc(C)c1S(=O)(=O)N1CCC[C@H]1[C@@H](O)CN1CCC[C@@]2(CCN(c3ncnc(N)c3C3CC3)C2)C1
Ask: Lab note: check whether A or B shows the higher recorded pIC50. Reply briefly: the label of your chosen item.
Result: B

###

Target: RAC-alpha serine/threonine-protein kinase (Homo sapiens, UniProt P31749)
Experiment: Inhibition of AKT1-mediated PRAS40 phosphorylation in human LNCaP cells
Format: cell-based
pIC50: −log10 of the molar value.
readout-label: pIC50

Example compounds with recorded pIC50:
[[record]]
compound = "Nc1ncnc(N2CC[C@@]3(CCCN(C[C@H](O)CNS(=O)(=O)c4ccccc4Br)C3)C2)c1C1CC1"
readout_label = "pIC50"
result_value = 5.70

[[record]]
compound = "Cc1ccccc1S(=O)(=O)NC[C@@H](O)CN1CCC[C@@]2(CCN(c3ncnc(N)c3C3CC3)C2)C1"
readout_label = "pIC50"
result_value = 5.92

[[record]]
compound = "Cc1cccc(C)c1S(=O)(=O)N1CCC[C@H]1[C@@H](O)CN1CCC[C@@]2(CCN(c3ncnc(N)c3C3CC3)C2)C1"
readout_label = "pIC50"
result_value = 6.16


(1) Cc1cccc(C)c1S(=O)(=O)N1CCC[C@H]1[C@H](O)CN1CCC[C@@]2(CCN(c3ncnc(N)c3C3CC3)C2)C1
(2) Cc1cccc(C)c1S(=O)(=O)N1CCC[C@@H]1[C@@H](O)CN1CCC[C@@]2(CCN(c3ncnc(N)c3C3CC3)C2)C1
Ask: Please indicate which has the smaller reported pIC50: 1 , or 2 . Reply briefly: the label of your chosen item.
Result: 1
(1: 4.89, 2: 5.62)

###

Target: RAC-alpha serine/threonine-protein kinase (Homo sapiens)
Test: Inhibition of Akt1
readout-label: IC50 (nM)

[[record]]
compound = "Cc1cccc(C)c1S(=O)(=O)N1CCC[C@@H]1[C@@H](O)CN1CCC[C@@]2(CCN(c3ncnc(N)c3C3CC3)C2)C1"
assay_system = "RAC-alpha serine/threonine-protein kinase (Homo sapiens)"
readout_label = "IC50"
result_value = 19


(I) CCOCCN(C[C@@H](O)CN1CCCC2(CCN(c3ncnc4[nH]cc(C)c34)C2)C1)S(=O)(=O)c1c(C)cccc1C (some centres undefined)
(II) CCOCCN(C[C@@H](O)CN1CCCC2(CCN(c3ncnc4n[nH]c(C)c34)C2)C1)S(=O)(=O)c1c(C)cccc1C (some centres undefined)
(III) Nc1ncnc(N2CC[C@@]3(CCCN(C[C@H](O)CNS(=O)(=O)c4ccccc4Cl)C3)C2)c1C1CC1
Ask: Kindly order the items shown according to IC50, from the highest value down. Could you list the labels in the order requested?
Result: II, III, I

###

Molecular target: RAC-alpha serine/threonine-protein kinase (Homo sapiens, UniProt P31749)
Assay: Inhibition of AKT1-mediated PRAS40 phosphorylation in human LNCaP cells
Format: cell-based
pIC50: −log10 of the molar value.
readout-label: pIC50

[[record]]
compound = "Cc1noc(C)c1S(=O)(=O)NC[C@@H](O)CN1CCC[C@@]2(CCN(c3ncnc(N)c3C3CC3)C2)C1"
readout_label = "pIC50"
result_value = 6.31

[[record]]
compound = "CCOCCN(C[C@@H](O)CN1CCCC2(CCN(c3ncnc4[nH]cc(C)c34)CC2)C1)S(=O)(=O)c1c(C)cccc1C"
readout_label = "pIC50"
result_value = 5.92


(a) Cc1ccc(S(=O)(=O)NC[C@@H](O)CN2CCC[C@@]3(CCN(c4ncnc(N)c4C4CC4)C3)C2)c(C)c1
(b) CCOCCN(C[C@@H](O)CN1CCCC2(CCN(c3ncnc(N)c3C3CC3)C2)C1)S(=O)(=O)c1c(C)cccc1C (mixture of isomers)
Ask: Please indicate which has the smaller reported pIC50: a , or b . Reply briefly: the label of your chosen item.
Result: a

###

Target: RAC-alpha serine/threonine-protein kinase (Homo sapiens, UniProt P31749)
Test: Inhibition of AKT1-mediated PRAS40 phosphorylation in human LNCaP cells
Format: cell-based
pIC50: −log10 of the molar value.
readout-label: pIC50

[[record]]
compound = "Cc1cc(F)ccc1S(=O)(=O)NC[C@@H](O)CN1CCC[C@@]2(CCN(c3ncnc(N)c3C3CC3)C2)C1"
result_value = 5.66

[[record]]
compound = "Nc1ncnc(N2CC[C@@]3(CCCN(C[C@H](O)CNS(=O)(=O)c4ccccc4F)C3)C2)c1C1CC1"
result_value = 4.85


(P) Nc1ncnc(N2CC[C@@]3(CCCN(C[C@H](O)CNS(=O)(=O)c4ccccc4Cl)C3)C2)c1C1CC1
(Q) CCOCCN(C[C@@H](O)CN1CCCC2(CCN(c3ncnc4n[nH]c(C)c34)C2)C1)S(=O)(=O)c1c(C)cccc1C (some centres undefined)
Ask: Please indicate which has the smaller reported pIC50: P , or Q . Reply briefly: the label of your chosen item.
Result: P
(P: 5.72, Q: 6.51)
